- Test system: Human melanoma MeWo cells
- assayInfo: Cell adhesion assay on vitronectin, MeWo
- Assay type: cell-based
- reportedConditions: inhibition of cell adhesion to human vitronectin, 0.1 to 100 μM; read-out: MeWo IC50 ± SD
Here the recorded pIC50 is given for each entry.
// pIC50 here means minus log10 of the molar concentration (mol/L)

Example cases with answers are listed next.
CC(C)[C@@H]1NC(=O)C(Cc2ccccc2)(C(F)(F)F)NC(=O)[C@H](CC(=O)O)NC(=O)CNC(=O)[C@H](CCCNC(=N)N)NC1=O (single isomer, unassigned) [ST2191, c(Arg-Gly-Asp-(R o S)-Tfm-Phe-Val)] = 4.66
N=C(N)NCCC[C@@H]1NC(=O)C(Cc2ccccc2)(C(F)(F)F)NC(=O)[C@@H](Cc2ccccc2)NC(=O)[C@H](CC(=O)O)NC(=O)CNC1=O (single isomer, unassigned) [ST1930, C(Arg-Gly-Asp-D-Phe-(R or S)-Tfm-Phe)] = 5.16

Now for a further molecule.
-- ask Look up pIC50: CN1C(=O)[C@@H](Cc2ccccc2)NC(=O)[C@H](CC(=O)O)NC(=O)CNC(=O)[C@H](CCCNC(=N)N)NC(=O)C1(Cc1ccccc1)C(F)(F)F (single isomer, unassigned)
-- reply 6.48
